test system: Influenza A strain Hong Kong; assay: Cytoprotection assay, Influenza A; format: cell-based; conditions: Influenza A virus, MDCK
quantity_name: EC50

Q) For the molecule COc1nc(N)nc2c1ncn2C1O[C@H](COP(=O)(N[C@@H](C)C(=O)OCC(C)(C)C)Oc2cccc3ccccc23)[C@@H](O)[C@@]1(C)O (stereo partly shown) [Example 20] , what EC50 is on record?
A) > 10 µM

----------
system: HCV replicon (Genotype 1b); assay: Luciferase genotype 1b replicon potency assay; conditions: Hepatitis C virus, GETYPE1B, read-out: IC50 μM, HCV genotype 1b luciferase replicon, Renilla luciferase reporter
# IC50 annotations
Number in µM, nothing else.

| molecule | assay_target | IC50 (µM) |
| --- | --- | --- |
| COC(=O)[C@@H](C)c1ccc2cc(OP(=O)(N[C@H](C(=O)OCC(C)(C)C)C(C)C)OC[C@H]3OC(n4cnc5c(OC)nc(N)nc54)[C@](C)(O)[C@@H]3O)ccc2c1 (stereo partly drawn) | HCV replicon (Genotype 1b) | 0.21 |

// below: IC50 requested for another molecule
Q) # value lookup — system HCV replicon (Genotype 1b), readout IC50, item COc1nc(N)nc2c1ncn2C1O[C@H](COP(=O)(N[C@@H](C)C(=O)OC2CCOCC2)Oc2cccc3ncccc23)[C@@H](O)[C@@]1(C)O (stereo partly drawn)
A) 1.2

Taken from patent US8759318B2.
